This listing pairs compounds with measured Dmax.
- system name: IRAK4 (Homo sapiens, UniProt Q9NWZ3)
- Construct: endogenous in cells; host or cells: Karpas299
- Sequence (Q9NWZ3 1-460): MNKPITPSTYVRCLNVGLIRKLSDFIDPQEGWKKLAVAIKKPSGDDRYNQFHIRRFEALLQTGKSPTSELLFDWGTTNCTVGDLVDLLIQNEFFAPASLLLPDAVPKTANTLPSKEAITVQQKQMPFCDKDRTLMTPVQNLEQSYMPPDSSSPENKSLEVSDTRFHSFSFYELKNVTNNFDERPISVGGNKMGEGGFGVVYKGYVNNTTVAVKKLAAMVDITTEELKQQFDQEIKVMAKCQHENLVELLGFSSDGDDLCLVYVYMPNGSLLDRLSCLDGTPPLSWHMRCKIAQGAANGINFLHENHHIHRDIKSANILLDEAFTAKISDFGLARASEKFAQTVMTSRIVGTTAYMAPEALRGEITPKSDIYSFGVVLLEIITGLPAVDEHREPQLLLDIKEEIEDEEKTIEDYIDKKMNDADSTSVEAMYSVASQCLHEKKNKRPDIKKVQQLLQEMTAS
- protocol: IRAK4 Degradation Assay (Karpas299, HTRF/TR-FRET)
- Type: cell-based
- condition context: Karpas-299 cells, 24 h treatment; maximum percentage of degradation; read-out: IRAK4 in Karpas-299 (24 h) Dmax (%)
Give the quantity in %, number only.

Here's what some known entries look like.
>>> numeric_result("CC(C)(O)c1cc2nn([C@H]3CC[C@H](N4CCN([C@H]5CCN(c6cc(F)c(C7CCC(=O)NC7=O)c(F)c6)C5)CC4)CC3)cc2cc1NC(=O)c1ccc2cc(C#N)cnn12 (some centres unmarked)")
97
>>> numeric_result("CC(C)(O)c1cc2nn([C@H]3CC[C@H](N4CCN([C@@H]5CCN(c6ccc(N7CCC(=O)NC7=O)cc6)C5)CC4)CC3)cc2cc1NC(=O)c1ccc2cc(C#N)cnn12")
97
>>> numeric_result("CC(C)(O)c1cc2nn(C34CC(N5CCN(CC6CCN(c7ccc8c(c7)CN(C7CCC(=O)NC7=O)C8=O)CC6)CC5)(C3)C4)cc2cc1NC(=O)c1ccc2cc(C#N)cnn12 (centres unmarked)")
94
>>> numeric_result("CC(C)(O)c1cc2nn(C34CC(N5CCN(CCc6cc(F)c([C@H]7CCC(=O)NC7=O)c(F)c6)CC5)(C3)C4)cc2cc1NC(=O)c1ccc2cc(C#N)cnn12")
95
>>> numeric_result("CC(C)(O)c1cc2nn([C@H]3CC[C@H](N4CCN(C(=O)C5CN(c6cc(F)c(N7CCC(=O)NC7=O)c(F)c6)C5)CC4)CC3)cc2cc1NC(=O)c1cccc(C(F)(F)F)n1")
96
>>> numeric_result("CC(C)(O)c1cc2nn(C3CCN(C4CCN(C(=O)[C@@H]5CCN(c6cc(F)c([C@H]7CCC(=O)NC7=O)c(F)c6)C5)CC4)CC3)cc2cc1NC(=O)c1cccn(C2CC2)c1=O")
85
>>> numeric_result("C[C@H]1CN([C@H]2CC[C@H](n3cc4cc(NC(=O)c5ccc6cc(C#N)cnn56)c(C(C)(C)O)cc4n3)CC2)CCN1C(=O)C1CN(c2cc(F)c(N3CCC(=O)NC3=O)c(F)c2)C1")
97
>>> numeric_result("CC(C)(O)c1cc2nn(C3CCN([C@H]4CCN(C(=O)C5CN(c6cc(F)c([C@H]7CCC(=O)NC7=O)c(F)c6)C5)CC4(F)F)CC3)cc2cc1NC(=O)c1ccc2cc(C#N)cnn12")
94

Bench note: what Dmax did COc1cc2nn([C@H]3CC[C@H](NC(=O)C4CCN(c5ccc6c(c5)C(=O)N(C5CCC(=O)NC5=O)C6=O)CC4)CC3)cc2cc1NC(=O)c1cccc(C(F)(F)F)n1 (some centres unmarked) show? 95

// returns reported Dmax for input CC(C)(O)c1cc2nn(C34CCC(N5CCN(CCc6cc(F)c([C@H]7CCC(=O)NC7=O)c(F)c6)CC5)(CC3)CC4)cc2cc1NC(=O)c1ccc2cc(C#N)cnn12 99

So what's the measured Dmax for this one? CC(C)(O)c1cc2nn(C3CCN([C@H]4CCN(CCc5cc(F)c([C@H]6CCC(=O)NC6=O)c(F)c5)CC4(F)F)CC3)cc2cc1NC(=O)c1ccc2cc(C#N)cnn12 95

Form field: reported Dmax of O=C1CC[C@H](c2c(F)cc(N3CC(C(=O)N4CCN([C@H]5CC[C@H](n6cc7cc(NC(=O)c8cccc(C(F)(F)F)n8)c(C(=O)N[C@H]8C[C@H](CO)C8)cc7n6)CC5)CC4)C3)cc2F)C(=O)N1 99

What measured Dmax goes with COC[C@@H]1CN([C@H]2CC[C@H](n3cc4cc(NC(=O)c5ccc6cc(C#N)cnn56)c(C(C)(C)O)cc4n3)CC2)CCN1C1CCN(c2ccc(C3CCC(=O)NC3=O)nc2C)CC1 (some centres unmarked) ? 94

Using the record for CC(C)(O)c1cc2nn([C@H]3CC[C@H](N4CCN(C(=O)N5CCN(c6ccc(C7CCC(=O)NC7=O)cc6)CC5)CC4)CC3)cc2cc1NC(=O)c1ccc2cc(C#N)cnn12 (some centres unmarked) , report its Dmax. 94

I am curious: what Dmax value has been reported for CC(C)(O)c1cc2nn([C@H]3C[C@H](N4CCN(C5CN(c6cc(F)c([C@H]7CCC(=O)NC7=O)c(F)c6)C5)CC4)C3)cc2cc1NC(=O)c1ccc2cc(C#N)cnn12 ? 92

Given the entry COC[C@H]1CN([C@H]2CC[C@H](n3cc4cc(NC(=O)c5ccc6cc(C#N)cnn56)c(C(C)(C)O)cc4n3)CC2)CCN1C(=O)C1CN(c2cc(F)c(N3CCC(=O)NC3=O)c(F)c2)C1 , report its measured Dmax. 95

Name the recorded Dmax for COc1cc2nn([C@H]3CC[C@H](N4CCN(C(=O)[C@@H]5CCN(c6cc(F)c(N7CCC(=O)NC7=O)c(F)c6)C5)CC4)CC3)cc2cc1NC(=O)c1cccc(C(F)(F)F)n1 . 97
